For each record, write down the corresponding Efficacy (%).
# Subject of test: CIB1 and αIIb interaction (CIB1-GST : F-αIIb peptide) (Homo sapiens)
# Construct: made in house; host or cells: BL-21 plus RIL cells (E. coli)
# Assay remarks: FP assay, 1536-well qHTS format (primary and confirmatory screen)
# Type: binding
# Condition set: qHTS primary screen of LOPAC/NPACT libraries; negative = inhibition
One number for each entry, in %.

Answered examples (5):
CO[C@@H](Cc1ccc(OCCc2nc(-c3ccccc3)oc2C)c2ccsc12)C(=O)O ... -15
O=C(N[C@@H](Cc1ccccc1)C(=O)CCl)OCc1ccccc1 ... -19
O=C([C@@H]1CCCN(c2ccc3[nH]c(C4(n5cc(Cl)cn5)CC4)nc3n2)C1)N1CCCC1 ... -26
O=C1OCc2cc3cccc(O[C@@H]4O[C@H](CO)[C@@H](O)[C@H](O)[C@H]4O)c3c(O)c21 ... -30
O=c1[nH]c2cc(C(F)(F)F)ccc2n1-c1cc(C(F)(F)F)ccc1O ... -30

// batch mode: one Efficacy (%) value per listed entry
1. Cc1ccccc1NC(=O)Nc1ccc(CN2C(=O)N([C@@H](CC(C)C)C(=O)N[C@@H](CC(=O)O)c3ccccc3)C(=O)C2(C)C)cc1
2. CN1CCC2(CCN3CCc4c(oc5ccccc45)C3C2)N(C)C1=O.Cl (centres unmarked)
3. N#C/C(=C\c1ccc(O)c(O)c1)C(=O)NCCc1ccccc1
4. COc1cc(N2CCC(N3CCN(C)CC3)CC2)ccc1Nc1ncc(Cl)c(-c2c[nH]c3ccccc23)n1
5. C=CC/C=C\C/C=C\CCCCCCCc1cccc(O)c1C(=O)O
6. CC(C)c1cc(F)cc2c1C[C@](CCN(C)CCCc1nc3ccccc3[nH]1)(OC(=O)C1CC1)CC2

-28
-11
-15
-31
-27
-30

Hello, I would appreciate it if you could give Efficacy (%) for each entry below.
1. C=CC(=O)Nc1cccc(Nc2nc(Nc3ccc(OCCOC)cc3)ncc2F)c1
2. CNC(=O)c1ccccc1Nc1cc(Nc2ccc(N3CCOCC3)cc2OC)ncc1C(F)(F)F
3. CC1=C(C(=O)OC2CCCCC2)C(c2ccc([N+](=O)[O-])cc2)C2=C(CC(C)(C)CC2=O)N1 (centres unmarked)
4. C=C1C(=O)O[C@@H]2[C@H]3C(C)=CC(=O)C3=C(C)CC[C@@H]12
5. CC(C)NC[C@@H](O)c1ccc(O)c(O)c1

[-22, -24, -104, -24, -24]

Look at each molecule and report its Efficacy (%).
1. CCCc1c(OCCCOc2ccc(OCC(=O)O)cc2)ccc(C(C)=O)c1O
2. Cl.O=c1cc(CN2CCOCC2)occ1OCCCCCSc1ccnc2cc(C(F)(F)F)ccc12
3. O=C(Nc1ccc([N+](=O)[O-])cc1Cl)c1cc(Cl)ccc1O

[-25, -26, -12]

I need Efficacy (%) for every entry listed below, if you could help.
1. Cc1cc(O)cc(Oc2cc(C)c(C(=O)O)c(O)c2)c1
2. O=C1Nc2ccccc2/C1=C1/Nc2ccccc2/C1=N\O
3. CC(=O)O[C@@H](CO[C@@H]1O[C@H](CO)[C@H](O)[C@H](O)[C@H]1O)[C@]1(C)C=C2CC[C@@H]3C(C)(C)[C@@H](O)CC[C@@]3(C)[C@@H]2CC1

1. -28
2. -18
3. -23

Quick request: Efficacy (%) for each listed item, please.
1. COc1cc(O)c2c(c1)/C=C/C[C@H](O)[C@H](O)C(=O)/C=C\C[C@H](C)OC2=O
2. C=C1C(=O)O[C@@H]2C/C(C)=C\C(=O)/C=C(\C)[C@@H](OC(=O)/C(C)=C\C)[C@H](O)[C@@H]12
3. C=C1C(=O)O[C@@H]2C(OC(=O)/C(C)=C\C)/C(C)=C\C(=O)/C=C(\C)C[C@H](O)[C@@H]12 (some centres unmarked)
4. N#CC(=C(\N)Sc1ccccc1N)/C(C#N)=C(/N)Sc1ccccc1N
5. O=[N+]([O-])/C=C/c1ccc2c(c1)OCO2
6. NC1(C(=O)O)CCc2cc(C(=O)O)ccc21 (centres unmarked)
7. O=C(Nc1ncc([N+](=O)[O-])s1)c1ccccc1O
8. COC(=O)C1=C(C)NC(C)=C(C(=O)OC)C1c1ccccc1[N+](=O)[O-]

-26
-23
-28
-18
-24
-25
-31
-24

Please give Efficacy (%) for each item listed below.
1. N#C/C(=C1\Nc2ccccc2S1)c1ccnc(NCCc2cccnc2)n1
2. O=C(NCc1ccc(Oc2ccccc2)cc1)c1nc(-c2cc(Br)c(O)c(Br)c2)no1

1. -26
2. -24

----------
# Subject of test: GST-CIB1:F-αIIb interaction (Homo sapiens, UniProt Q99828)
# Construct: made in house; host or cells: BL-21 plus RIL cells (E. coli)
# Sequence (Q99828 whole entry): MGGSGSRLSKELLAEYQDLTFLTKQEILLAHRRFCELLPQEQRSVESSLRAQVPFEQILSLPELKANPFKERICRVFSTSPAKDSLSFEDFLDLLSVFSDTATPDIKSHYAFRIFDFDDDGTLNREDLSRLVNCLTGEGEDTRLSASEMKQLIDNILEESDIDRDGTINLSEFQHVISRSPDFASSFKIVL
# Assay remarks: Gel-based (in-gel) binding assay
# Condition set: 1 μM GST-CIB1, 400 nM F-αIIb; 60 μM, 1:2, 4-points
Outcome measure: Active in Gel Assay?

Below are worked cases with known answers.
CN(C)C(=S)SSC(=S)N(C)C [NCGC00091563-02, thiram, reference compound] ... YES
COc1cccc(-n2c(SCc3cc(=O)oc4cc(O)c(O)cc34)nc3ccccc3c2=O)c1.O=C(O)C(F)(F)F ... YES
CC(C)(C)c1ccc(SC2=NS(=O)(=O)c3ccccc32)cc1 ... YES
O=C(c1cccs1)c1no[n+]([O-])c1C(=O)c1cccs1 ... YES
Oc1ccc2ccccc2c1SSc1c(O)ccc2ccccc12 [NCGC00186047-02, IPA-3, reference compound] ... YES
CC(C)=CCC[C@]1(C)C=Cc2c(O)c3c(c(CC=C(C)C)c2O1)O[C@]12C(=C[C@@H]4CC1C(C)(C)O[C@@]2(C/C=C(/C)C(=O)O)C4=O)C3=O ... YES
O=C1C(I)=CC(=C(c2cc(I)c([O-])c(I)c2)c2ccccc2C(=O)[O-])C=C1I.[Na+].[Na+] ... YES
CCN(CC)C(=S)SSC(=S)N(CC)CC [NCGC00016000-13, disulfiram, reference compound] ... YES
COc1ccc(CNC(=O)c2nc(S(=O)(=O)Cc3ccccc3)ncc2Cl)cc1.O=C(O)C(F)(F)F ... YES
S=C(SSC(=S)N1CCCCC1)N1CCCCC1 [NCGC00181776-02, dipentamethylenethiuram disulfide] ... YES

Each molecule below has a reported value. Please supply its Active in Gel Assay?.
1. O=[N+]([O-])c1cnc(Sc2nnc(O)n2-c2ccc3c(c2)OCCO3)s1
2. COc1ccccc1C(=O)c1no[n+]([O-])c1C(=O)c1ccccc1OC.O=C(O)C(F)(F)F
3. O=c1[nH]sc2cc(Cl)ccc12 [NCGC00262908-01, ticlatone, reference compound]

["YES", "YES", "YES"]

----------
# Subject of test: CIB1 and αIIb interaction (CIB1-GST : F-αIIb peptide) (Homo sapiens)
# Construct: made in house; host or cells: BL-21 plus RIL cells (E. coli)
# Assay remarks: FP assay, 1536-well qHTS format (primary and confirmatory screen)
# Type: binding
# Condition set: qHTS primary screen hits, Table S2; negative = inhibition
So basically: Efficacy (%) at -40% or higher? That is yes. Lower than -40%? That is no.

Here are 5 compounds together with their reported answers.
O=C(O)C(F)(F)F.OCc1ccc(-c2ccc3ncnc(NCc4cccs4)c3c2)o1 [NCGC00189276-01] ... no
CN(C)CCCCCCNC(=O)c1cccc(-c2cc(O)c3ncccc3c2)c1.O=C(O)C(F)(F)F [NCGC00247743-01] ... yes
Cc1nc(C(=O)NCC(=O)O)c(O)c2ccc(Oc3ccccc3)cc12 [NCGC00346527-01] ... yes
O=C(O)C(F)(F)F.O=C(c1ccc2ccccc2c1)c1no[n+]([O-])c1C(=O)c1ccc2ccccc2c1 [NCGC00351316-01] ... yes
NS(=O)(=O)c1ccc(Cc2cn(-c3nc(C(=O)O)cs3)nc2-c2ccc(F)c(F)c2)cc1.O=C(O)C(F)(F)F [NCGC00356753-01] ... yes

Does Efficacy (%) meet or surpass -40% for CN(N=O)c1cc(O)ccc1O [NCGC00015372-04] ? no

State whether the measured Efficacy (%) reaches -40%, counting equality as reaching it, for O=C(CN(c1cccc(Br)c1)S(=O)(=O)c1ccccc1)NN=CC1=CC(=[N+]([O-])O)C=CC1=O.O=C(O)C(F)(F)F [NCGC00248455-01] no

// inclusive: Efficacy (%) at least -40%? input: Cc1ccc(S(=O)(=O)Nc2cnccc2C(=O)Nc2nc(-c3nc4ccccc4s3)cs2)cc1.O=C(O)C(F)(F)F [NCGC00343736-01] no

# bool: Efficacy (%) of CC(C)c1ccc(NC(=S)N/N=C2\C(=O)Nc3ccccc32)cc1.O=C(O)C(F)(F)F [NCGC00242646-01] >= -40% yes

Determine whether this compound has Efficacy (%) no lower than -40%: Cc1cc(C)nc(NC(=S)N2CCN(c3ccc4nsnc4c3)CC2)c1.O=C(O)C(F)(F)F [NCGC00244160-01] no

Has CO[C@@]12[C@H](COC(N)=O)C3=C(C(=O)C(C)=C(N)C3=O)N1C[C@@H]1N[C@@H]12 [NCGC00163468-05] a recorded Efficacy (%) greater than or equal to -40%? yes

Is Efficacy (%) for OCCN(CCO)c1nc(N2CCCCC2)c2nc(N(CCO)CCO)nc(N3CCCCC3)c2n1 [NCGC00015385-15] at or above -40%? no

Is the recorded value of Efficacy (%) equal to or greater than -40% for this compound? NS(=O)(=O)c1ccc(Nc2nc(-c3ccccc3)cs2)cc1.O=C(O)C(F)(F)F [NCGC00262411-01] no

Could you please find out whether COc1cc(NS(=O)(=O)c2cccc([N+](=O)[O-])c2)c2ncccc2c1 [NCGC00161706-01] has Efficacy (%) that meets -40% or exceeds it? yes

State whether the measured Efficacy (%) reaches -40%, counting equality as reaching it, for O=C(Nc1ccccc1)c1ccccc1NC(=O)C1CCCCC1 [NCGC00189487-01] yes

# check: Efficacy (%) of COc1ccc(CNC(=O)c2ccc3c(c2)NC(=O)c2ccccc2S3)cc1 [NCGC00241665-01] is greater than or equal to -40% yes

Assess whether reported Efficacy (%) for COc1ccc2[nH]c([S+]([O-])Cc3ncc(C)c(OC)c3C)nc2c1 (stereo not shown) [NCGC00016925-10] sits at -40% or higher. yes

Say whether NS(=O)(=O)c1ccc(Cc2c(-c3cccc(-c4ccccc4F)c3)nn(-c3nc(C(=O)O)cs3)c2O)cc1.O=C(O)C(F)(F)F [NCGC00356464-01] shows Efficacy (%) of -40% or more. no

Please indicate if the recorded Efficacy (%) for O=C(O)C(F)(F)F.O=C(c1ccc2c(c1)ncn2-c1ccc(C(F)(F)F)cc1)N1CCCCC1 [NCGC00262230-01] meets or exceeds -40%. no
